biological target: HCV polymerase 1B (Δ21 NS5B, BK) (Hepatitis C virus genotype 1b, UniProt P26663); construct: 20 to 50 nM Δ21 NS5B; assay: biochemical
Sequence (P26663 2420-2989, stated change not applied): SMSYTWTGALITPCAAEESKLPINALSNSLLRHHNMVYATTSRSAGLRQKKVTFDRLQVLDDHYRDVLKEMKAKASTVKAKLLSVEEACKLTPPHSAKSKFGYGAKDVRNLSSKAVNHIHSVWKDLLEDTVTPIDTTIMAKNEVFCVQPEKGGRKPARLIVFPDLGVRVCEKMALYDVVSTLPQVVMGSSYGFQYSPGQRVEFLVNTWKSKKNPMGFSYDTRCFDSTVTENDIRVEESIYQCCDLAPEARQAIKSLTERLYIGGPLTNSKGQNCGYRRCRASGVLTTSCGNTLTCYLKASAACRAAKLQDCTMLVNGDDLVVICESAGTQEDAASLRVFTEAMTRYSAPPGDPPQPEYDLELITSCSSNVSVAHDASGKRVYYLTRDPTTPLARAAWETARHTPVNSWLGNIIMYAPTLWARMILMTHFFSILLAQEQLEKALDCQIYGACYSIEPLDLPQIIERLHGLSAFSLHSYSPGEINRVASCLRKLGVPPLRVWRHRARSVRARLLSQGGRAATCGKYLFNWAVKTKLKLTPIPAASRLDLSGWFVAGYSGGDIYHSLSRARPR
pIC50: −log10 of the molar value. Counter-ions that a name gives are not always drawn.
This listing pairs molecules with measured pIC50.

COc1c(-c2ccc(/C=N/NS(C)(=O)=O)c(F)c2)cc(N2CCC(=O)NC2=O)cc1C(C)(C)C : 7.00 to 8.00
COc1c(C#Cc2ccc(NS(C)(=O)=O)cc2C)cc(N2CCC(=O)NC2=O)cc1C(C)(C)C : > 8.00
CCc1cc(NS(C)(=O)=O)ccc1C#Cc1cc(N2CCC(=O)NC2=O)cc(C(C)(C)C)c1OC : 7.00 to 8.00
CC(C)(C)c1cc(N2CCC(=O)NC2=O)cc(CN2CCCC(C(N)=O)C2)c1O (stereo not shown) [IA-L5-1-1.8, trifluoroacetic acid salt] : < 6.00
COc1c(N(C)C(=O)c2ccc(NS(C)(=O)=O)cc2)cc(N2CCC(=O)NC2=O)cc1C(C)(C)C : < 6.00
COc1c(-c2ccc3c(c2)CCC3(C)CNS(C)(=O)=O)cc(-n2ccc(=O)[nH]c2=O)cc1C(C)(C)C (stereo not shown) : 7.00 to 8.00

Please find the next molecule below.
Short answer for `COc1c(C#Cc2ccc(NS(C)(=O)=O)cc2)cc(N2CCC(=O)NC2=O)cc1C(C)(C)C` : pIC50 was > 8.00
